Source listed as the supplement of paper PMC13380429.

# Tested on: Calu-3
# protocolDetails: cell viability relative to DMSO; higher = less toxic
# conditionContext: 72 h; 10 nM
measuredParameter: cell viability (%)
Give bare numbers, in %.

Known cell viability results, listed for orientation:
O=C(Nc1cc(-c2ccccc2)nn1-c1ccccc1F)c1ccc([N+](=O)[O-])cc1 : 97.7
Cc1ccc(Cl)c(OCC(O)CNC(C)(C)C)c1 (centres undefined) : 99.8

Please go through the list and note cell viability for each compound.
1. CC(=O)Nc1ccc(CC(=O)O)cc1
2. COc1ccc(CCN2CCN(CCCc3ccccc3)CC2)cc1OC
3. CC(C)c1nc(CN(C)C(=O)N[C@H](C(=O)N[C@@H](Cc2ccccc2)C[C@H](O)[C@H](Cc2ccccc2)NC(=O)OCc2cncs2)C(C)C)cs1
4. O=C(NO)c1ccc(O)c(O)c1
5. Cc1ccc(S(=O)(=O)Nc2ccc3c(c2)c(C(=O)C(F)(F)F)cn3CC(=O)N[C@@H](CC(C)C)C(=O)O)cc1

[104, 110, 87, 110, 101]

Please go through the list and note cell viability for each compound.
1. C#CCC(Cc1cnc2nc(N)nc(N)c2n1)c1ccc(C(=O)N[C@@H](CCC(=O)O)C(=O)O)cc1 (some centres undefined) [pralatrexate]
2. C[N+]1(CCCCC[N+]2(C)CCCC2)CCCC1

1: 102; 2: 91.2

====

# Test system: Vero E6
# protocolDetails: drug sensitivity score (DSS) for viability; higher = more toxic; extreme values may be limits of the assay
# conditionContext: 72 h
measuredParameter: drug sensitivity score

Known drug sensitivity score results, listed for orientation:
Nc1ccc(S(=O)(=O)Nc2ccc(Cl)nn2)cc1 [sulfachlorpyridazine] : 0
CCCCC1(COC(=O)CCC(=O)O)C(=O)N(c2ccccc2)N(c2ccccc2)C1=O [suxibuzone] : 0

Please go through the list and note drug sensitivity score for each molecule.
1. CC[C@H](c1ccc(O)cc1)[C@@H](CC)c1ccc(O)cc1 [hexestrol]
2. O=C(O)Cn1nnc(-c2cc(N3CCC(Oc4cc(F)ccc4Br)CC3)no2)n1 [MK-8245]
3. NC1=N[C@@](c2cccc(-c3cncnc3)c2)(c2ccnc(C(F)F)c2)c2cccc(F)c21 [AZD3839]
4. NC(=O)C[S+]([O-])C(c1ccccc1)c1ccccc1 (centres undefined) [MODAFINIL]
5. CN(Cc1ccc(C(C)(C)C)cc1)Cc1cccc2ccccc12 [butenafine]
6. c1ccc2c(c1)sc1ccccc12 [dibenzothiophene]

[0, 0.1, 0, 0, 0, 0]

Which drug sensitivity score reading was recorded for the molecule "O=C(Nc1ccncc1)c1cc([N+](=O)[O-])ccc1Cl" ?
0.9

====

# System: A549-ACE2
# protocolDetails: drug-induced phospholipidosis relative to tamoxifen; higher = more phospholipidosis
# conditionContext: 10 µM; 72 h
measuredParameter: drug-induced phospholipidosis (%)
One number for each entry, in %.

Known drug-induced phospholipidosis results, listed for orientation:
Cc1cccc(Nc2nc(-c3ccncc3)cs2)c1 : 120
Nc1nccc(Oc2ccc(NC(=O)c3c[nH]cc(-c4ccc(F)cc4)c3=O)cc2F)c1Cl : 10.8
Cn1cc(C2=C(c3ccc(Cl)cc3Cl)C(=O)NC2=O)c2ccccc21 : 56.2

Please go through the list and note drug-induced phospholipidosis for each molecule.
1. CCn1c2ccccc2c2cc(CNC)ccc21
2. OCCN1CCN(CC/C=C2/c3ccccc3Sc3ccc(C(F)(F)F)cc32)CC1
3. CCCCN1[C@@H]2CC[C@H]1C[C@@H](OC(c1ccc(F)cc1)c1ccc(F)cc1)C2

[70.8, 74.8, 110]
